These measurements were taken from the Human Domainome abundance scans (Beltran et al. 2025).

B1: WW domain-containing transcription regulator protein 1, residues 116 to 162; numbered along this chain, Q9GZV5 (parent)
chain: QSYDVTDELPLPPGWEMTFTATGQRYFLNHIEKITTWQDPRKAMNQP

Variants of: B1
Test: abundance fitness (aPCA) (normalised: wild type 0, dead -1); higher = more abundant; growth selection in yeast, the domain comes from the species named
Conditions: Homo sapiens
endpoint: abundance fitness

| residue change | observed value |
| --- | --- |
| W15F | -0.311 |
| W37Y | -0.073 |
| T6A | -0.196 |
| S2E | -0.274 |
| T18Q | 0.045 |
| S2L | -0.093 |
| P13W | -0.245 |
| K33F | -0.683 |
| T20H | -0.451 |
| T22F | -0.35 |
| P40T | -0.857 |
| A43C | -0.056 |
| L9Q | 0.022 |
| N29P | -1.11 |
| E32C | -0.053 |
| W37Q | -0.328 |
| T22G | -0.052 |
| Q1D | -0.005 |
| P12C | -0.716 |
| R25G | -0.37 |
| R25T | -0.295 |
| M17P | -0.345 |
